- ASSAYED_TARGET: C-terminal-binding protein 1 (Homo sapiens) (UniProt Q13363)
- METHOD_SUMMARY: qHTS for Inhibitors of the Phosphatase Activity of Eya2: Carboxyl-terminal binding protein (CtBP) Counterscreen for Cherry-picked Compounds; also: nearly all actives have a fitted effect of over 65% in size; also: potency is read from the fitted curve at half-maximal effect
- MEASUREMENT_PARAMETERS: purified protein-protein binding, AlphaScreen, 3 h; series mostly up to 46.1 µM
The campaign covered roughly 1,300 compounds. About 420 (32%) were called active. Not shown: some 32% with an inconclusive outcome. The list shows a part of the results.
RECORDED_METRIC: Potency

Below, each entry is followed by its recorded Potency result.
1) Cc1ccc(/C=C2\C(=O)NC(=S)N(c3cccc(F)c3)C2=O)o1; inactive
2) CCC(COC(=O)c1cc(OC)c(OC)c(OC)c1)(c1ccccc1)N(C)C (stereo not given); inactive
3) CN(C)S(=O)(=O)c1ccc(C(=O)NNc2nc(-c3ccccc3)c3cc(Br)ccc3n2)cc1; 8.49 µM (active)
4) N[C@@H](Cc1cc(I)c(O)c(I)c1)C(=O)O; 8.49 µM (active)
5) COc1ccccc1N1CCN(CCc2c[nH]c3cc4c(cc23)OCO4)CC1; 13.5 µM (active)

[ask] Param readout = Potency; param system = C-terminal-binding protein 1 (Homo sapiens) (UniProt Q13363); param query = CCOC(=O)c1cc2c(cn1)[C@@H](CCO)NC2 ; response: value
[reply] inactive

[ask] Then this compound: COC(=O)C1=C(c2cccc(OCc3ccccc3)c2)C[C@@H]2CC[C@H]1N2C(=O)NCCCc1ccccc1
[reply] inactive
